Measurement description: activity coefficient (dimensionless); of the first substance listed, at infinite dilution; xn = mol fraction of the nth substance listed
Stated conditions: 333.15 K; 101.33 kPa; Liquid; Chromatography; x1 = 0
Metric: activity coefficient

INSERT INTO measurements (compound, recorded_number) VALUES
  ('CCCCCCCCCC [decane] + CCCCC(CC)CN(CC(CC)CCCC)C(=O)C(C)C', 22.7),
  ('CC(C)=O [acetone] + CCCCC(CC)CN(CC(CC)CCCC)C(=O)C(C)C', 0.745),
  ('CCCCCC [hexane] + CCCCC(CC)CN(CC(CC)CCCC)C(=O)C(C)C', 1.53),
  ('CCCCc1ccccc1 [butylbenzene] + CCCCC(CC)CN(CC(CC)CCCC)C(=O)C(C)C', 20.7);

I: C=CCCCCCCCC [1-decene] + CCCCC(CC)CN(CC(CC)CCCC)C(=O)C(C)C
II: CC#N [acetonitrile] + CCCCC(CC)CN(CC(CC)CCCC)C(=O)C(C)C
III: CCCCC [pentane] + CCCCC(CC)CN(CC(CC)CCCC)C(=O)C(C)C
IV: C1CCCCC1 [cyclohexane] + CCCCC(CC)CN(CC(CC)CCCC)C(=O)C(C)C
V: CCCCCC(C)=O [2-heptanone] + CCCCC(CC)CN(CC(CC)CCCC)C(=O)C(C)C
**Query** Arrange the 5 entries by activity coefficient so the values rise. Give the labels in the order requested.
**Result** III, II, IV, V, I
